target: activated human MMP13 (human, UniProt P45452 104-471); assay: cell-based or functional assay
recorded-metric: IC50, human fluorogenic peptide assay (nM)

Would you please look over these solved cases?
# binder, IC50, human fluorogenic peptide assay, nM
records = [
    ("C0101PMP059F06 (VHH, Profile 2 Nanobody) VHH: EVQLVESEGGTVEPGESLRLACAAPGPGIRTNFMAWYRQAPEKEREMVASISRDGSTHYADSVKGRFTISSDNATSTFYLQMNSLQVEDTAVYYCATDPHILHNDRAGAFLVEDYDHWGQGTQVTVSS", 56.3),
    ("C0101PMP080A01 (VHH) VHH: EVQLVESGGGLVQPGGSLRLSCAASGFTLAYYSIGWFRQAPGKEREGVSCISSGIDGSTYYADSVKGRFTISRDNAKNTMYLQMNNLKPEDTGVYYCAADPSHYYSEYDCGYYGMDYWGKGTLVTVSS", 5.2),
    ("C0101PMP520C04 (VHH, Profile 2 Nanobody) VHH: DVQLVESGGGLVQPGGSLRLSCAASGRTFSSYAMGWFRQAPGKEREFVAAISWSGGSTYYSDSVKGRFTISRDNSKNTVYLQMNSLRPEDTAVYYCTAARGGVAGTDGPLGDYNYWGQGTLVTVSS", 13.7),
    ("C0101PMP520B06 (VHH, Profile 2 Nanobody) VHH: DVQLVESGGGLVQPGGSLRLSCAASGRTFSSYAMGWFRQAPGKEREFVAAISWGGGSTYYSDSVKGRFTISRDNSKNTVYLQMNSLRPEDTAVYYCTAALGSTGSGSTPVPEYRYWGQGTLVTVSS", 13.4),
    ("C0101PMP519E04 (VHH, Profile 2 Nanobody) VHH: DVQLVESGGGLVQPGGSLRLSCVASGPTFSDYAMGWFRQAPGKEREFVAAISWSGGSTYYADSVKGRFTISRDNSKNTVYLQMNSLRPEDTAVYYCTAARGGGYRASGGPLSEYNYWGQGTLVTVSS", 9.5),
    ("C0101PMP517A01 (VHH, Profile 2 Nanobody; also called C0101517A01; C010100087 (parental)) VHH: DVQLVESGGGLVQPGGSLRLSCAASGRTFSSYAMGWFRQAPGKEREFVAAISWSGGSTYYADSVKGRFTISRDNSKNTVYLQMNSLRPEDTAVYYCTAALAVYGPNRYRYGPVGEYNYWGQGTLVTVSS", 4.6),
]

a: C0101PMP529G11 (VHH, Profile 2 Nanobody) VHH: DVQLVESGGGLVQPGGSLRLSCAASGSIFRINAMGWYRQAPGKQRELVAAIISGGTTYYADSVKGRFTISRDNSKNTVYLQMNSLRPEDTAVYYCYADIGWPYVLDYDFWGQGTLVTVSS
b: C0101PMP521F02 (VHH, Profile 2 Nanobody) VHH: DVQLVESGGGLVQPGGSLRLSCVASGLTFSSYAMGWFRQAPGKEREFVAAISWSGGRTYYADSVKGRFTISRDNSKNTVYLQMNSLRPEDTAVYYCTAARGPGSVGPSEEYNYWGQGTLVTVSS
Data request: Please compare: a and b . Report which one has the smaller IC50, human fluorogenic peptide assay value. Pick one; state its label.
Data returned: b

Values from patent US12129308
